Target: T1, human PRLR (Biacore antigen) (human, UniProt P16471 25-234, limits assumed)
T1 construct: The construct injected over captured antibody is not described (a soluble form is likely); also called huPRLR
T1 sequence: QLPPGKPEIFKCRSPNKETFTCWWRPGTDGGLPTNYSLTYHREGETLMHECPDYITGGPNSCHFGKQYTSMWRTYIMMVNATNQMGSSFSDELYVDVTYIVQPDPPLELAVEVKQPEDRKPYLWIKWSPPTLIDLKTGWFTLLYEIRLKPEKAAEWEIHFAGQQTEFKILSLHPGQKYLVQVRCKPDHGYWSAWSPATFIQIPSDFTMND
Test: SPR simultaneous binding; PRLR held by surface mAb Ab39
OBSERVATION TYPE: solution mAb binding, % of PRLR binding (%)
# output: bare number, implied unit %

Sample answers from the record:
BINDER: LFA102 (antibody, human IgG1, kappa, V domains shown, humanized IgG1 kappa comparator (WO 2008022295)) VH: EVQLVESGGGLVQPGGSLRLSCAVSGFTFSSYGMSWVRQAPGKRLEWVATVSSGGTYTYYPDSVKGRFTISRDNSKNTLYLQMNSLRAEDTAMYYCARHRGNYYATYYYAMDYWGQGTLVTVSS VL: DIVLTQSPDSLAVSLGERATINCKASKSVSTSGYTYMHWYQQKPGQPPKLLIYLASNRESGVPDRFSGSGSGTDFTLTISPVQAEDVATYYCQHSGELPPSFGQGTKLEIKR
solution mAb binding, % of PRLR binding (%): 36

BINDER: chAb7 (antibody, human IgG1, kappa, V domains shown, chimeric, murine variable and human G1/kappa constant regions) VH: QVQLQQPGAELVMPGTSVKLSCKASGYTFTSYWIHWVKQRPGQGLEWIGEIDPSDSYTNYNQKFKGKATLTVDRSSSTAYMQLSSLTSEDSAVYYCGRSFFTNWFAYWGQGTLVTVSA VL: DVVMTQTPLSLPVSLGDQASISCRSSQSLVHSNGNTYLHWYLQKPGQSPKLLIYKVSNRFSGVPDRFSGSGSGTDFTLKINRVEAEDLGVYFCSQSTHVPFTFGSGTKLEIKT
solution mAb binding, % of PRLR binding (%): -2

# input for lookup
Per the record, Ab19 (antibody, human IgG1, kappa, V domains shown, humanized from Ab6; G1; also called Ab1 HC.1a and Ab1 LC.1a) VH: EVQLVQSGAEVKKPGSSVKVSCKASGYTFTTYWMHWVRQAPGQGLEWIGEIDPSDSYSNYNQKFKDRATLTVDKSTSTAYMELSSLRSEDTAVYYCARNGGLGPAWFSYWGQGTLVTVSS VL: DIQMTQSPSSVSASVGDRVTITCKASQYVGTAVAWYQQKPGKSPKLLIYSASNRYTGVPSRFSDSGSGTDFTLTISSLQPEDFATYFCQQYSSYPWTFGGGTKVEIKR has solution mAb binding, % of PRLR binding of -2

Recorded values, source patent US20170022281A1.
